Target: T1, hLTBP3-proTGFβ1 (Homo sapiens, UniProt P01137)
T1 construct: made in house; host or cells: Expi293F cells, transient co-transfection
T1 sequence (P01137 30-390): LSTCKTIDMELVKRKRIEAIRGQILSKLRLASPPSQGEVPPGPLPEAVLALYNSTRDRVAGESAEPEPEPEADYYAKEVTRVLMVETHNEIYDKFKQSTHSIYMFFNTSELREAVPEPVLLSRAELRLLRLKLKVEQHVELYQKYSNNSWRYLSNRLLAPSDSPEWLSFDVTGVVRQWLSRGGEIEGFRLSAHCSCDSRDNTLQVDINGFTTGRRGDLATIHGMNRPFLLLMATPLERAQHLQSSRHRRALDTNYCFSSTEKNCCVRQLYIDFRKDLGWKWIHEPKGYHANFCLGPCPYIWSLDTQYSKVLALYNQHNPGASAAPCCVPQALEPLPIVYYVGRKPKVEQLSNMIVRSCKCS
T1 sequence (Q9NS15 866-1039 partner limits assumed): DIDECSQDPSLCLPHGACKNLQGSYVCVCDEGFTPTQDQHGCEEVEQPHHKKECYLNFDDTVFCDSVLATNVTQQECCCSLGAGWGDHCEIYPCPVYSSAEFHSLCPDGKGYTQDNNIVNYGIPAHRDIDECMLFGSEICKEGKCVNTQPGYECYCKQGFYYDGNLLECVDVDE
Assay: MSD-SET solution equilibrium titration binding
Settings: MSD-SET at equilibrium, hIgG4, human complex; in M
Record form. Attribute: (C) hLTBP3, Matrix-associated proTGFβ1 KD. Fill in for each entry.
When you answer, write just the number.

The molecule Ab11: monoclonal antibody; VH SEQ ID NO: 239, VL SEQ ID NO: 241 (antibody, V domains shown) VH: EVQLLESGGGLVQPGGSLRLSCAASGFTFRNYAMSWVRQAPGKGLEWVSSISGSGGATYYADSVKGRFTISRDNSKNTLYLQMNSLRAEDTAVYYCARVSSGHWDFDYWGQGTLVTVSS VL: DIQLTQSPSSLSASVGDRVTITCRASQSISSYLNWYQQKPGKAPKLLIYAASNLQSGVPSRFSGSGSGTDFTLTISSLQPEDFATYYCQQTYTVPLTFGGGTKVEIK showed (C) hLTBP3, Matrix-associated proTGFβ1 KD equal to 1.20E−09

The molecule Ab32: monoclonal antibody; VH SEQ ID NO: 140, VL SEQ ID NO: 15 (antibody, V domains shown) VH: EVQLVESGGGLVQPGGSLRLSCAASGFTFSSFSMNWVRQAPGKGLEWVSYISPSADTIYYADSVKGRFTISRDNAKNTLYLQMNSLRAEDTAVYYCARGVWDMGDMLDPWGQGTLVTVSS VL: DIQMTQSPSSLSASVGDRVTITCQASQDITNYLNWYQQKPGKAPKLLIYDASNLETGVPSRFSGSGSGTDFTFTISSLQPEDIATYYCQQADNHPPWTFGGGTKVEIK showed (C) hLTBP3, Matrix-associated proTGFβ1 KD equal to 2.60E−11
